Data origin: PubChem BioAssay (NCI)

Test: NCI Yeast Anticancer Drug Screen. Data for the rad50 strain (AID 155);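 further: 0% = growth of vehicle-only cultures of the same strain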
Settings: S. cerevisiae rad50 strain growth inhibition; at 5.0 µM (retest, dose inferred, filed as 0.5); stronger effect = higher value
Compounds without any hit were thinned out: in the full panel of roughly 79,000, 15% have a hit.
property-name: growth inhibition (%)

1. COc1cccc(C(c2cc3c(cc2O)OCO3)N2CCCC2)c1O (stereo not given)    0
2. O=c1ccnc(Sc2ccc([N+](=O)[O-])cc2[N+](=O)[O-])[nH]1    16
3. CCCCCCCCCCCCCC[N+]1(CC)CCCCC1    77
4. [O-]c1c2cc(-[n+]3c(-c4ccccc4)cc(-c4ccccc4)cc3-c3ccccc3)cc1CO[C@@H](c1ccccc1)[C@H](c1ccccc1)OCCOCCO[C@@H](c1ccccc1)[C@H](c1ccccc1)OC2    97
5. Cc1ccc(S(=O)(=O)NCCCSCCO)cc1    6
6. COc1ccccc1NC(=O)C1=CNC(C)=C(C(=O)Nc2ccccc2OC)C1/C=C/c1ccccc1 (stereo not given)    1
7. Cc1ncn(-c2ccccc2O)c1C    -3
8. NC(=O)C(CCc1cccc2ccccc12)c1ccccc1 (stereo not given)    6
9. O=C1c2c(Br)c(Br)c(Br)c(Br)c2C(=O)N1c1nccs1    -1
10. O=C(C(/C=N\C(=S)Nc1ccccc1Cl)=C(/O)c1ccccc1)c1ccccc1    86
11. CC(=O)N(C)c1ccc2c(c1)Cc1ccccc1-2    2
12. O=C(NC(Cc1ccccc1)C(=O)O)c1ccncc1 (stereo not given)    -2
13. Nc1ccc(C(=O)N/N=C\c2cccc3ccccc23)cc1    0
14. O=C1c2ccccc2CCC1C(O)(C(F)(F)F)C(F)(F)F (stereo not given)    19
15. CCN(CC)CCOc1ccc(/C(C#N)=C/c2ccc3ccccc3c2)cc1    38
16. N=c1c2ccccc2cc2c3ccccc3ccn12    45
17. Nc1ncnc2c1ncn2C1OCC(OCc2ccccc2)C(OCc2ccccc2)C1OCc1ccccc1 (stereo not given)    9
18. O=Nc1ccc(O)c(/C=N/O)c1    19
19. CCC(c1ccc(Cl)cc1)C(C#N)c1ccc(Cl)cc1 (stereo not given)    10
20. O=C(O)c1ccccc1-c1ccccc1C(=O)Nc1ccc2c(c1)Cc1cc(F)ccc1-2    22
21. CC(C)C1(C)C(C#N)(C#N)C1(C#N)C#N    -94
22. C=CCc1cc([N+](=O)[O-])ccc1O    -4
23. Oc1ccc(N=Nc2ccccc2)cc1    13
24. CN(C)CCOC(=O)c1ccccc1    3
25. Fc1cccc(CSc2n[nH]c(=S)c3nc[nH]c23)c1    0
26. COC(=O)c1ccc(CCC2=CC(=O)C=CC2=O)cc1    39
27. CSc1ccc(/C=C2/C[N+](C)(C)C/C(=C/c3ccc(SC)cc3)C2=O)cc1    41
28. CC(C)CCCC(C)C1CCC2C3CC=C4CC(OC(=O)Nc5ccc(S(=O)(=O)c6ccc(F)cc6)cc5)CCC4(C)C3CCC12C (stereo not given)    3
29. O=C(c1cccs1)N(C(=S)N1CCN(c2ccccn2)CC1)C1CCCCC1    4
30. CC(=O)OCc1cc(=O)n(C)c2c3c4c(cc12)c(C)cc(=O)n4CO3    87
31. NCCSC1(O)C(=O)c2ccccc2C1=O    35
32. CC(C)(C)c1ccc(C(=O)n2c(=S)oc3ccc(Cl)cc32)cc1    50
33. Cc1ccc(O)c(C(C)(C)c2ccccc2)c1    -8
34. CCCCC(CC)C(O)C(=O)O (stereo not given)    2
35. CC(C)OC(=O)Oc1c(Cl)c(Cl)c(Cl)c(Cl)c1Cl    -3
36. CCOC(=O)C(N=Nc1ccc(Br)c(C)c1)C(C)=O (stereo not given)    -4
37. Cc1cc(NS(=O)(=O)c2ccc(N)cc2)no1.[Ag]    99
38. CNc1ccc(C(=O)NC(CCCCNC(=O)OCc2ccccc2)C(=O)OC)cc1 (stereo not given)    -3
39. c1ccc(COc2ccc(C[P+](c3ccccc3)(c3ccccc3)c3ccccc3)cc2)cc1    97
40. CCOC(=O)N1C=CC(=C2C(=C3C=CN(C(=O)OCC)C=C3)C(=C3C=CN(C(=O)OCC)C=C3)C2=C2C=CN(C(=O)OCC)C=C2)C=C1    55
41. N#Cc1c(Cl)nnc(-c2ccccc2)c1-c1ccccc1    6
42. CNC(=S)N/N=C(\C=N\NC(=S)NC)c1ccccc1    7
43. COc1cccc2nc3c(C(=O)NCCN(C)C)cccc3cc12    60
44. Cc1ccc(C2=Nc3c(c(C)nn3-c3ccccc3)N=C(C(=O)O)C2)cc1    1
45. COc1ccc([N+](=O)[O-])cc1Nc1c2ccccc2nc2ccccc12    6

* * *

Test: NCI Yeast Anticancer Drug Screen. Data for the cln2 rad14 strain (AID 165);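 further: 0% = growth equal to vehicle treated cultures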
Conditions: S. cerevisiae cln2 rad14 strain, at 50.0 µM (retest, dose inferred, filed as 5.0), stronger effect = higher value
Compounds without any hit were thinned out: in the full panel of roughly 79,000, 15% have a hit.
# key: entry, value: growth inhibition
property-name: growth inhibition (%)

1) Cc1cc(N2C(=O)CSC2=S)c([N+](=O)[O-])cc1C    97
2) Oc1c(Cl)c(Cl)c(O)c2c1CCCC2    99
3) Cc1cc(Br)c2ccccc2c1N    42
4) C/C(=N\NC(=S)N1CCCCCC1)c1ccccn1    98
5) CC(C)OC(=O)Oc1c(Cl)c(Cl)c(Cl)c(Cl)c1Cl    98
6) N#CC1(C#N)C2C=CC(C3CCC=C32)C1(C#N)C#N (configuration not stated)    60
7) O=C(NNc1ccccc1)c1ccc([N+](=O)[O-])cc1    96
8) CCOC(CCl)Oc1c(C(C)C)cc(C(C)C)c(Cl)c1C (configuration not stated)    26
9) COc1cccc(/C=C/C(C)=O)c1OC    4
10) c1ccc(COc2ccc(C[P+](c3ccccc3)(c3ccccc3)c3ccccc3)cc2)cc1    98
11) CCOC(=O)C(N=Nc1ccc(Br)c(C)c1)C(C)=O (configuration not stated)    50
12) COc1ccc(CN2CCCN(Cc3ccc(OC)cc3OC)C2c2cc(Br)ccc2O)c(OC)c1    94

* * *

Listed next: entries and their corresponding growth inhibition.
Test: NCI Yeast Anticancer Drug Screen. Data for the rad50 strain (AID 155);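 further: 0% = growth of vehicle-only cultures of the same strain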
Conditions: S. cerevisiae rad50 strain growth inhibition; at 50.0 µM; stronger effect = higher value
The panel holds about 79,000 compounds, 15% with a hit somewhere; the sample as a whole holds those more often.
property-name: growth inhibition (%)

1. CC(C)c1cc2c(cc1O)C(O)C1(O)CCCC(C)(C)[C@H]1CC2 (stereo partly specified)    91.4
2. CC(C)=CCC/C(C)=C/CC/C(C)=C/CSc1ccccc1C(=O)O    76.3
3. O=C(NC(Cc1ccccc1)C(=O)O)c1ccncc1 (stereo unspecified)    61.6
4. OC(CN1CCc2ccccc2C1)c1ccc2ccccc2c1 (stereo unspecified)    86.5
5. O=C(O)c1c2c(c(O)c3c1CN(C1CCCCC1)CO3)OCN(C1CCCCC1)C2    50.4
6. CCOC(=O)c1cnc2cc3cccccc3n2c1=O    71.7

* * *

Assay: NCI Yeast Anticancer Drug Screen. Data for the mlh1 rad18 strain (AID 175)
Settings: S. cerevisiae mlh1 rad18 strain growth inhibition; at 50.0 µM (retest, dose inferred, filed as 5.0); stronger effect = higher value
Compounds without any hit were thinned out: in the full panel of roughly 79,000, 15% have a hit.
property-name: growth inhibition (%)

1. CN(C)/N=C1\CC(c2ccccc2)C(C#N)(C#N)C1(C#N)C#N (stereo unspecified)    99
2. O=C1OC(c2ccccc2)(c2ccc(-c3ccc(O)cc3)cc2)c2ccccc21 (stereo unspecified)    96
3. Cc1cc(N(CCOS(C)(=O)=O)CCOS(C)(=O)=O)ccc1C=Nc1cc(Br)c(O)c(Br)c1    91
4. O=[N+]([O-])c1c[nH]c2ncnc(SCc3ccccc3)c12    98
5. O=C(CC(=O)C(F)(F)F)c1ccc(-c2ccccc2)cc1    99
6. O=S(=O)(SCc1ccccc1)C(c1ccccc1)c1ccccc1    18
7. NC(=O)C1(Br)C=[N+](Cc2ccccc2)CCC1 (stereo unspecified)    1
8. O=C1OC(c2ccccc2)=N/C1=C\c1ccc(Oc2ccc(Cl)c(Cl)c2)cc1    -4
9. CSC1=NSC(c2ccccc2)=C(c2ccccc2)S1    16
10. CC(C)(CC#N)c1cc(CC(C)(C)c2cc(CC(C)(C)c3cc(CC(C)(C)C4(C)OCCO4)no3)no2)no1    -8
11. COC1=CC(=O)c2c(ccc3ncnc(N)c23)C1=O    59

* * *

Test: NCI Yeast Anticancer Drug Screen. Data for the cln2 rad14 strain (AID 165);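 further: 0% = growth equal to vehicle treated cultures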
Details: S. cerevisiae cln2 rad14 strain, at 50.0 µM (retest, dose inferred, filed as 5.0)
About 79,000 compounds went through this panel and 15% of them were active in at least one assay; those are over-represented in the sample as a whole. Calls of active or inactive are those of the source. Cut-off read from the data, not from the text of the source: active = growth inhibition above about 70%; inactive = the rest.
Classes used: active, inactive

1. COc1ncnc2nc(SC)[nH]c12    inactive
2. c1ccc(C(c2ccccc2)c2ccc3ccccc3n2)cc1    inactive
3. N#[N+]c1c([O-])ccc2nc3ccccc3nc12    inactive
4. C#CC(=O)OCC#CCOC(=O)C#C    inactive
5. COC1C(=[N+]=[N-])C(=O)NC(=O)N1C1OC(COC(c2ccccc2)(c2ccccc2)c2ccccc2)C(O)C1O (configuration not stated)    inactive
6. CCCCC1(CC)COC(c2ccccc2OC)OC1 (configuration not stated)    inactive
7. O=C1c2cc([N+](=O)[O-])cc3cc([N+](=O)[O-])cc(c23)C(=O)N1CCCNCCNCCCN1C(=O)c2cc([N+](=O)[O-])cc3cc([N+](=O)[O-])cc(c23)C1=O    active
8. O=C(OCCCC(C(=O)c1ccccc1)=P(c1ccccc1)(c1ccccc1)c1ccccc1)c1ccccc1    active
9. O=C(/C=C(\OB(F)F)c1ccccc1)c1ccccc1    inactive
10. CC(C)c1cc2c(cc1O)C[C@@]1(O)CCCC(C)(C)C1CC2 (some centres not stated)    active
11. CC12CCC3c4cc(O)ccc4CCC3C1CCC2O (configuration not stated)    inactive
12. C[n+]1cccc2c1-c1ccccc1C2=O    inactive
13. C#CC(CC)(CC)N=Cc1cc(Cl)cc(Cl)c1O    active
14. O=c1cccccc1[O-].O=c1cccccc1[O-].O=c1cccccc1[O-].[Dy+3]    inactive
15. CC(/C=C/c1cccs1)=N\NC(=S)NCC(C)C    active
16. COC1=CC(=O)[C@H]2CC(C)=CC[C@]2(C)C1=O    inactive
17. CC12CC[C@@H](C(C)(C)O)C1[C@@H](O)CC1(C)C2CCC2[C@@]3(C)CC[C@H](O)C(C)(C)C3C(O)C[C@]21C (some centres not stated)    active
18. CCOC(=O)c1cc(Cl)nc2ccc(OC)cc12    inactive
19. O/N=C1/C(=C/c2ccc(Cl)c(Cl)c2)CCCC1C(NO)c1ccc(Cl)c(Cl)c1 (configuration not stated)    active
20. CCOC(=O)OCCSCCOC(=O)OCC    inactive
21. c1cnc2ccc3c4cccnc4ccc3c2c1    inactive
22. S=C(NCc1ccccc1)[S][Sb]([S]C(=S)NCc1ccccc1)[c]1ccccc1    active
